Each record here notes measured MIC90.
tested on: Bacillus subtilis; assay: Antibacterial activity against Bacillus subtilis PY79 incubated for 18 hrs in presence of 73.6 mg/L Ca2+ by visual method; assay type: functional
I only need the number, in µg/mL, no unit after it.

A selection of reference data follows.
structureAsSmiles	assayedSystem	unitInfo	MIC90
CCCCCCCCCC(=O)N[C@@H](Cc1c[nH]c2ccccc12)C(=O)N[C@H](CC(=O)O)C(=O)N[C@@H](CC(N)=O)C(=O)N[C@@H]1C(=O)N(C)CC(=O)N[C@@H](C)C(=O)N[C@@H](CC(=O)O)C(=O)N[C@H](C)C(=O)N[C@@H](CC(=O)O)C(=O)NCC(=O)N[C@H](CO)C(=O)N[C@@H](CCC(=O)O)C(=O)N[C@@H](CC(=O)c2ccccc2N)C(=O)O[C@@H]1C	Bacillus subtilis	µg/mL	20
CCCCCCCCCC(=O)N[C@@H](Cc1c[nH]c2ccccc12)C(=O)N[C@H](CCC(=O)O)C(=O)N[C@@H](CC(N)=O)C(=O)N[C@H]1COC(=O)[C@H]([C@@H](C)CC)NC(=O)[C@H](CCC(=O)O)NC(=O)[C@@H](CC(N)=O)NC(=O)CNC(=O)[C@H](CC(=O)O)NC(=O)[C@@H](CCCCN)NC(=O)[C@H](CC(=O)O)NC(=O)[C@H](C)NC(=O)CN(C)C1=O	Bacillus subtilis	µg/mL	25

Here is the next item to consider.
Note down MIC90 recorded for "CCCCCCCCCC(=O)N[C@@H](Cc1c[nH]c2ccccc12)C(=O)N[C@@H](CC(N)=O)C(=O)N[C@@H](CC(=O)O)C(=O)N[C@@H]1C(=O)NCC(=O)N[C@@H](CCCN)C(=O)N[C@@H](CC(=O)O)C(=O)N[C@H](C)C(=O)N[C@@H](CC(=O)O)C(=O)NCC(=O)N[C@H](CO)C(=O)N[C@H](CCC(=O)O)C(=O)N[C@@H](CC(=O)c2ccccc2N)C(=O)O[C@@H]1C"
11

###

Reported MIC90 is given for each of the following molecules.
system: Bacillus subtilis; test: Antibacterial activity against Bacillus subtilis PY79 incubated for 18 hrs in presence of 73.6 mg/L Ca2+ by visual method; format: functional
Write the value in µg/mL as a bare number.

The following molecules have reported results that may help.
structureAsSmiles	assayedSystem	MIC90 (µg/mL)
CCCCCCCCCC(=O)N[C@@H](Cc1c[nH]c2ccccc12)C(=O)N[C@H](CCC(=O)O)C(=O)N[C@@H](CC(N)=O)C(=O)N[C@@H]1C(=O)N(C)CC(=O)N[C@@H](C)C(=O)N[C@@H](CC(=O)O)C(=O)N[C@H](CCCCN)C(=O)N[C@@H](CC(=O)O)C(=O)NCC(=O)N[C@H](CC(N)=O)C(=O)N[C@@H](CCC(=O)O)C(=O)N[C@@H]([C@@H](C)CC)C(=O)O[C@@H]1C	Bacillus subtilis	25
CCCCCCCCCC(=O)N[C@@H](Cc1c[nH]c2ccccc12)C(=O)N[C@H](CC(N)=O)C(=O)N[C@@H](CC(=O)O)C(=O)N[C@@H]1C(=O)NCC(=O)N[C@@H](CCCN)C(=O)N[C@@H](CC(=O)O)C(=O)N[C@H](C)C(=O)N[C@@H](CC(=O)O)C(=O)NCC(=O)N[C@H](CO)C(=O)N[C@@H]([C@H](C)CC(=O)O)C(=O)N[C@@H](CC(=O)c2ccccc2N)C(=O)O[C@@H]1C	Bacillus subtilis	2

Note MIC90 for the molecule shown: "CCCCCCCCCC(=O)N[C@@H](Cc1c[nH]c2ccccc12)C(=O)N[C@H](CC(=O)O)C(=O)N[C@@H](CC(N)=O)C(=O)N[C@@H]1C(=O)N(C)CC(=O)N[C@@H](CCCN)C(=O)N[C@@H](CC(=O)O)C(=O)N[C@H](C)C(=O)N[C@@H](CC(=O)O)C(=O)NCC(=O)N[C@H](CO)C(=O)N[C@@H](CCC(=O)O)C(=O)N[C@@H](CC(=O)c2ccccc2N)C(=O)O[C@@H]1C"
20
